B1: KIAA1161 (parent)
chain: FMPAMQFSIPPWRYDAEVVAIAQK

- Variants of: B1
- Protocol: protein stability index of a GFP-peptide fusion (GPS, HEK-293T) (PSI 1-6); higher = more stable;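 also: lentivirally expressed fusions sorted by FACS into six bins by GFP to DsRed ratio, PSI derived from sequencing read proportions per bin multiplied by bin number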
- Reported conditions: c terminus: a fixed tail appended
Attribute measured: protein stability index

input_sequence=FMPAQQFSIPPWRYDAEVVAIAQK value_observed=2.24
input_sequence=FMPAMQFSIPPWRQDAEVVAIAQK value_observed=2.57
input_sequence=FMPAMQFSIQPWRYDAEVVAIAQK value_observed=1.64
input_sequence=FMPAMQFSIPPWRYDAEVVAEAQK value_observed=2.6
input_sequence=FMPAMQFSIPPWRYDAEVIAIAQK value_observed=1.46
input_sequence=FMPAMQFSIPPWRYWAEVVAIAQK value_observed=1.19
input_sequence=FMPAMQFSIPPWRYDAEVVGIAQK value_observed=1.98
input_sequence=FMPAMQFSIPCWRYDAEVVAIAQK value_observed=1.79
input_sequence=MMPAMQFSIPPWRYDAEVVAIAQK value_observed=2.83
input_sequence=FMPAMQFSIPPWPYDAEVVAIAQK value_observed=2.17

Request: Reported protein stability index, variant `FMPAMQFSIPPWRYDWEVVAIAQK` : ____
Response: 1.66

Request: Reported protein stability index, variant `FMPAMQFSIPPWRYDAEVGAIAQK` : ____
Response: 2.2

Request: Reported protein stability index, variant `FMPAMQFSIPQWRYDAEVVAIAQK` : ____
Response: 1.78

Request: Reported protein stability index, variant `FMPAMQFSIPPWRYDAEVVAISQK` : ____
Response: 1.94

Request: Reported protein stability index, variant `FAPAMQFSIPPWRYDAEVVAIAQK` : ____
Response: 2.47

Request: Reported protein stability index, variant `FMPAMQFSIPPWNYDAEVVAIAQK` : ____
Response: 2.51
